- System: Vero CCL-81 cells
readout.kind: CC50 (µM)
Note: unit µM is implicit; provide only the numeric part.

Q) What CC50 value was documented for this compound, O=c1nc(NO)ccn1[C@@H]1O[C@H](CO)[C@@H](O)[C@H]1O [NHC, β-D-N4-hydroxycytidine] ?
A) 18.8

###

- Tested on: SARS-CoV-2 (hCoV-19/USA-WA1/2020) in Caco-2 cells
- stated.conditions: Caco-2
Structures can show the parent of a compound that is named as a salt.
readout.kind: Caco-2 Unbound Cmax/EC50
Respond using a number only.

CC(c1cc2ccccc2s1)N(O)C(N)=O (stereo not shown) [Zileuton] : 0.003
CC(C)C(=O)OC[C@H]1O[C@@H](n2ccc(NO)nc2=O)[C@H](O)[C@@H]1O [Molnupiravir (NHC), Molnupiravir] : 5.3
Cc1cccc(/C=N/Nc2cc(N3CCOCC3)nc(OCCc3ccccn3)n2)c1 [Apilimod mesylate] : 0.0005

Continue with the compound presented below.
Q) What Caco-2 Unbound Cmax/EC50 value was documented for this compound, CC(=O)Oc1ccccc1C(=O)Nc1ncc([N+](=O)[O-])s1 [Nitazoxanide] ?
A) 0.078
